Data credit: paper PMC11239830

System: S. pneumoniae
Experiment: MIC, broth microdilution
Assay type: cell-based, Streptococcus pneumoniae
Settings: S. pneumoniae PU09, mef
Attribute: MIC

Molecule	Target Or Test System	Limit Qualifier	MIC, µg/mL
CC[C@H]1OC(=O)[C@H](C)C(=O)[C@H](C)[C@@H](O[C@@H]2O[C@H](C)C[C@H](N(C)C)[C@H]2O)[C@](C)(OC)C[C@@H](C)C(=O)[C@H](C)[C@H]2N(CCCCn3cnc(-c4cccnc4)c3)C(=O)O[C@]12C [telithromycin, reference compound]	S. pneumoniae	=	1
CC[C@H]1OC(=O)[C@H](C)[C@@H](OC(=O)NCCCCCCCCCCc2ccc3c(c2)c(=O)c(C(N)=O)cn3C2CC2)[C@H](C)[C@@H](O[C@@H]2O[C@H](C)C[C@H](N(C)C)[C@H]2O)[C@](C)(OC)C[C@@H](C)C(=NOC)[C@H](C)[C@H]2OC(=O)O[C@@]21C [64b]	S. pneumoniae	=	8
CC[C@H]1OC(=O)[C@H](C)[C@@H](OC(=O)NCCCCCCC#Cc2ccc3c(=O)c(C(=O)O)cn(C4CC4)c3c2)[C@H](C)[C@@H](O[C@@H]2O[C@H](C)C[C@H](N(C)C)[C@H]2O)[C@](C)(O)C[C@@H](C)CN(C)[C@H](C)[C@H]2OC(=O)O[C@@]21C [111c]	S. pneumoniae	≤	0.008
CC[C@H]1OC(=O)[C@H](C)[C@@H](OC(=O)NCCNCCC#Cc2ccc3c(=O)c(C(=O)O)cn(C4CC4)c3c2)[C@H](C)[C@@H](O[C@@H]2O[C@H](C)C[C@H](N(C)C)[C@H]2O)[C@](C)(OC)C[C@@H](C)C(=NOC)[C@H](C)[C@H]2OC(=O)O[C@@]21C [74c]	S. pneumoniae	=	0.12
